# System tested: Protein cereblon/Interleukin-1 receptor-associated kinase 4 (Homo sapiens, UniProt Q9NWZ3+Q96SW2)
# Sequence (Q96SW2 whole entry, looked up): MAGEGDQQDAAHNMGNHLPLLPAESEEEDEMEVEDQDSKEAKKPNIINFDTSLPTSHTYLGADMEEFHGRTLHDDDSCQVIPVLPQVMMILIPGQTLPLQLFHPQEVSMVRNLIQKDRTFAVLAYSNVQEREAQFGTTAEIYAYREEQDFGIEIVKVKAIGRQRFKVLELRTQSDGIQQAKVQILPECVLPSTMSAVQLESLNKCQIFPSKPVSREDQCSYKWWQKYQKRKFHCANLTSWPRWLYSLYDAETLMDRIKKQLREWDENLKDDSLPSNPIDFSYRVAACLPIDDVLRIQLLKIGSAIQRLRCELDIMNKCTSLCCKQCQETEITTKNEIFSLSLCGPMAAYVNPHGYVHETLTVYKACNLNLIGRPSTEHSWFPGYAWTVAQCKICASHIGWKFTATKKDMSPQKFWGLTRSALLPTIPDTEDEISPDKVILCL
# Sequence (Q9NWZ3 whole entry, looked up): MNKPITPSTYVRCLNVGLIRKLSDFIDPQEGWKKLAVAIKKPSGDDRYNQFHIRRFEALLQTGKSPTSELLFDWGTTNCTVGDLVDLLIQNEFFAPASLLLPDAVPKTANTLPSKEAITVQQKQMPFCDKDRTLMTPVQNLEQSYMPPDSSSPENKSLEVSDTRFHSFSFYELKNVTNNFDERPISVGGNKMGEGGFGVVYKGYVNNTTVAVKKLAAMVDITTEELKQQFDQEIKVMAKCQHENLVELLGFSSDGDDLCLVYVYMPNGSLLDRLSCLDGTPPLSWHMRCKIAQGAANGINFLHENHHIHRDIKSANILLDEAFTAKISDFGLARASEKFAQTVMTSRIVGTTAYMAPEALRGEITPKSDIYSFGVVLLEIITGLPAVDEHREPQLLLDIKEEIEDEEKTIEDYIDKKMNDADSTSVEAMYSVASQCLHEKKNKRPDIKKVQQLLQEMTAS
# Test description: PROTAC activity at CRBN/IRAK4 in human THP-1 cells assessed as induction of IRAK4 degradation incubated for 24 hrs by HiBiT lytic reagent based analysis relative to control
# Assay type: cell-based
Measured parameter: Emax (%)

Some entries whose results are on file:
Cn1c(=O)n(C2CCC(=O)NC2=O)c2cccc(C#CCO[C@H]3CC[C@H](CN4CCC5(CC4)Cc4cc(NC(=O)c6cnn7cccnc67)c(N6CCC(CO)CC6)cc4O5)CC3)c21 (stereo not given in full)
90
Cn1c(=O)n(C2CCC(=O)NC2=O)c2cccc(C#CCO[C@H]3CC[C@H](CN4CCC5(CC4)Cc4cc(NC(=O)c6cnn7cccnc67)c(N6CCC(F)CC6)cc4O5)CC3)c21 (stereo not given in full)
85
Cn1c(=O)n(C2CCC(=O)NC2=O)c2cccc(C#CCO[C@H]3CC[C@H](CN4CCC5(CC4)Cc4cc(NC(=O)c6cnn7cccnc67)c(OC(F)F)cc4O5)CC3)c21 (stereo not given in full)
83

1 = Cn1c(=O)n(C2CCC(=O)NC2=O)c2cccc(CN3CC4(CCN(CCN5CCC6(CC5)Cc5cc(NC(=O)c7cnn8cccnc78)c(N7CCC(CO)CC7)cc5O6)CC4)C3)c21 (stereo not given)
2 = Cn1c(=O)n(C2CCC(=O)NC2=O)c2cccc(C#CCO[C@H]3CC[C@H](CN4CCC5(CCc6cc(NC(=O)c7cnn8cccnc78)c(N7CCC(CO)CC7)cc6O5)CC4)CC3)c21 (stereo not given in full)
Task: Between item 1 and item 2 , which reported Emax is smaller? Refer to your chosen item by its label in the answer.
Result: 2
(2: 46%, 1: 95%)

----------
# Test description: Permeability across apical to basal side in human Caco-2 cells incubated for 120 mins by LC-MS/MS analysis
# Format: ADME, cell-based
# Study conditions: read-out: permeability
Measured parameter: Papp A→B at 2 h (×10⁻⁶ cm/s)
# number only, unit ×10⁻⁶ cm/s dropped from output

Looking up Cn1c(=O)n(C2CCC(=O)NC2=O)c2cccc(C#CCO[C@H]3CC[C@H](CN4CCC5(CC4)Cc4cc(NC(=O)c6coc7cccnc67)c(N6CCC(CO)CC6)cc4O5)CC3)c21 (stereo partly specified) , I found its Papp A→B at 2 h recorded as 0.09

----------
# Test description: AUClast in Sprague-Dawley rat at 2 mg/kg, iv measured up to 24 hrs by LC-MS/MS analysis
# Assay type: ADME, organism-based
# Study conditions: in vivo
Measured parameter: AUClast (µg·h/mL)

Cn1c(=O)n(C2CCC(=O)NC2=O)c2cccc(C#CCO[C@H]3CC[C@H](CN4CCC5(CC4)Cc4cc(NC(=O)c6cnn7cccnc67)c(N6CCC(CO)CC6)cc4O5)CC3)c21 (some centres undefined)
2.193

a = Cn1c(=O)n(C2CCC(=O)NC2=O)c2cccc(C#CCO[C@H]3CC[C@H](CN4CCC5(CC4)Cc4cc(NC(=O)c6cnn7cccnc67)c(N6CCC(O)CC6)cc4O5)CC3)c21 (some centres undefined)
b = Cn1c(=O)n(C2CCC(=O)NC2=O)c2cccc(C#CCO[C@H]3CC[C@H](CN4CCC5(CC4)Cc4cc(NC(=O)c6cnn7cc(F)cnc67)c(N6CCC(CO)CC6)cc4O5)CC3)c21 (some centres undefined)
Task: Smaller AUClast value? Options are a and b Choose, then provide that item's label.
Result: b
